Each entry below carries its recorded -logMIC.
tested on: Escherichia coli; test: Antibacterial activity against Escherichia coli; type: functional
test readout: -logMIC

> print(dat)
                                    molecule  test.readout  numeric.result
 1  CC1CC(C)CN(c2ccc(C(=O)Nc3ccccc3C(=O)O)cc2Oc2ccccc2)C1 (stereo not given)       -logMIC           5.252
 2  O=C(Nc1ccccc1C(=O)O)c1ccc(-c2ccc(C(F)(F)F)cc2)c(Oc2ccccc2)c1       -logMIC           6.155
 3  O=C(Nc1ccccc1C(=O)O)c1cc(O)c(Br)c(Oc2ccccc2)c1       -logMIC           5.553
 4  O=C(Nc1ccccc1C(=O)O)c1ccc(-c2ccccc2)c(Oc2ccccc2)c1       -logMIC           5.854
 5  O=C(Nc1ccccc1C(=O)O)c1ccc(-c2ccc(F)cc2F)c(Oc2ccccc2)c1       -logMIC           6.155
 6  Cc1cc(-c2ccc(C(=O)Nc3ccccc3C(=O)O)cc2Oc2ccccc2)ccc1F       -logMIC           6.155
 7  O=C(Nc1ccccc1C(=O)O)c1cc(O)c(-c2ccccc2)c(Oc2ccccc2)c1       -logMIC           5.854
 8  CC(C)c1cccc(-c2ccc(C(=O)Nc3ccccc3C(=O)O)cc2Oc2ccccc2)c1       -logMIC           5.553
 9  Cc1cc(-c2ccc(C(=O)Nc3ccccc3C(=O)O)cc2Oc2ccccc2)ccc1Cl       -logMIC           6.155
10  CS(=O)(=O)c1ccc(-c2ccc(C(=O)Nc3ccccc3C(=O)O)cc2Oc2ccccc2)cc1       -logMIC           5.252

====

Target: Beta-ketoacyl-[acyl-carrier-protein] synthase III (Enterococcus faecalis (strain ATCC 700802 / V583), UniProt Q820T1)
Sequence (Q820T1 whole entry): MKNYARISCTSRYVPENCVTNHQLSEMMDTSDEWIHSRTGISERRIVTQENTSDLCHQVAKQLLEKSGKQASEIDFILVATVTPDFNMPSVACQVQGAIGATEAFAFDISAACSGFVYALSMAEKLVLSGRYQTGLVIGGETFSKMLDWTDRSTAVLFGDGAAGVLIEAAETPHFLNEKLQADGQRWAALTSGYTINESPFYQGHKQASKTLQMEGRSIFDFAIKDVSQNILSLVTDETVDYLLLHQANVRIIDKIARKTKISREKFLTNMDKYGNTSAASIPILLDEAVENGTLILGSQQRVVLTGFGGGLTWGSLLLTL
Assay: Inhibition of Enterococcus faecalis FabH by FabD/FabH coupled assay
test readout: IC50 (nM)

> print(dat)
                                   compound  test.readout  reading.unit  numeric.result
1  O=C(Nc1ccccc1C(=O)O)c1cc(O)c(Br)c(Oc2ccccc2)c1          IC50            nM            62.1
2  O=C(NC1SC=CC1C(=O)O)c1cccc(Oc2ccccc2)c1 (stereo not given)          IC50            nM           43000
3  O=C(NC1=CCSC1C(=O)O)c1cccc(Oc2ccccc2)c1 (stereo not given)          IC50            nM           10100
4  O=C(Nc1ccccc1C(=O)O)c1cc(O)cc(Oc2ccccc2)c1          IC50            nM             410
5  O=C(Nc1ccccc1C(=O)O)c1cc(O)c(-c2ccccc2)c(Oc2ccccc2)c1          IC50            nM               4
